Test system: CAKI-1
Assay: NCI-60 one-dose SRB screening
Format: cell-based
Conditions: Homo sapiens, CAKI-1, Renal Cancer, 10 µM one dose, 48 h, read-out: growth percentage
For each record, write down the corresponding activity at 10 µM.
Answers are plain numbers, in %.

Problem: What activity at 10 µM value was documented for this compound, Cc1nc(Nc2ccc(OCc3c(-c4ccccc4)no[n+]3[O-])cc2)c2cnn(-c3ccccc3)c2n1 ?
Result: 87.6

Problem: What activity at 10 µM value was documented for this compound, Nc1ccc(NCc2c(-c3ccccc3)no[n+]2[O-])cc1 ?
Result: 108

Problem: What activity at 10 µM value was documented for this compound, O=c1[nH]c(CNc2ccc(NCc3c(-c4ccccc4)no[n+]3[O-])cc2)nc2c1cnn2-c1ccccc1 [14a] ?
Result: 55.1

Problem: What activity at 10 µM value was documented for this compound, O=c1[nH]c(CCl)nc2c1cnn2-c1ccccc1 [13a] ?
Result: 97.6

Problem: What activity at 10 µM value was documented for this compound, Cc1nn(-c2ccccc2)c2nc(CNc3ccc(NCc4c(-c5ccccc5)no[n+]4[O-])cc3)[nH]c(=O)c12 [14b] ?
Result: 67.1

Return reported activity at 10 µM values for all items listed beneath this line.
1. [O-][n+]1onc(-c2ccccc2)c1CNc1ccc(Nc2nc(C(F)(F)F)nc3c2cnn3-c2ccc(Br)cc2)cc1 [12b]
2. [O-][n+]1onc(-c2ccccc2)c1COc1ccc(Nc2ncnc3c2cnn3-c2ccccc2)cc1
3. Cc1nn(-c2ccc(Br)cc2)c2nc(CNc3ccc(NCc4c(-c5ccccc5)no[n+]4[O-])cc3)[nH]c(=O)c12 [14c]

Result:
[31.1, 99.4, 90.2]

----------
Test system: BT-549
Assay: NCI-60 one-dose SRB screening
Format: cell-based
Conditions: Homo sapiens, BT-549, Breast Cancer, 10 µM one dose, 48 h, read-out: growth percentage
For each record, write down the corresponding activity at 10 µM.
Answers are plain numbers, in %.

Problem: I'm curious: which activity at 10 µM was measured for [O-][n+]1onc(-c2ccccc2)c1COc1ccc(Nc2ncnc3c2cnn3-c2ccccc2)cc1 tested on BT-549?
Result: 95.4

Problem: I'm curious: which activity at 10 µM was measured for Cc1nc(Nc2ccc(OCc3c(-c4ccccc4)no[n+]3[O-])cc2)c2cnn(-c3ccccc3)c2n1 tested on BT-549?
Result: 95

Problem: I'm curious: which activity at 10 µM was measured for Cc1nn(-c2ccccc2)c2ncnc(Nc3ccc(OCc4c(-c5ccccc5)no[n+]4[O-])cc3)c12 tested on BT-549?
Result: 101

Problem: I'm curious: which activity at 10 µM was measured for Cc1nn(-c2ccc(Br)cc2)c2nc(C(F)(F)F)nc(Nc3ccc(NCc4c(-c5ccccc5)no[n+]4[O-])cc3)c12 [12c] tested on BT-549?
Result: 97.4

Problem: I'm curious: which activity at 10 µM was measured for [O-][n+]1onc(-c2ccccc2)c1COc1ccc(Nc2ncnc3c2cnn3-c2ccc(Br)cc2)cc1 tested on BT-549?
Result: 95.8

Problem: I'm curious: which activity at 10 µM was measured for Cc1nn(-c2ccc(Br)cc2)c2nc(CNc3ccc(NCc4c(-c5ccccc5)no[n+]4[O-])cc3)[nH]c(=O)c12 [14c] tested on BT-549?
Result: 98.1

Problem: I'm curious: which activity at 10 µM was measured for O=c1[nH]c(CCl)nc2c1cnn2-c1ccccc1 [13a] tested on BT-549?
Result: 94.1

We now examine a further molecule.
Problem: I'm curious: which activity at 10 µM was measured for Cc1nn(-c2ccccc2)c2nc(C(F)(F)F)nc(Nc3ccc(NCc4c(-c5ccccc5)no[n+]4[O-])cc3)c12 [12a] tested on BT-549?
Result: 103

----------
For each record, write down the corresponding activity at 10 µM.
Test system: UACC-257
Assay: NCI-60 one-dose SRB screening
Type: cell-based
Conditions: Homo sapiens, UACC-257, Melanoma, 10 µM one dose, 48 h, read-out: growth percentage
Numbers only, in %.

Problem: I'm curious: which activity at 10 µM was measured for Cc1nn(-c2ccc(Br)cc2)c2nc(CCl)[nH]c(=O)c12 [13c] tested on UACC-257?
Result: 102

Return reported activity at 10 µM values for all items listed beneath this line.
1. Cc1nn(-c2ccc(Br)cc2)c2nc(C(F)(F)F)nc(Nc3ccc(NCc4c(-c5ccccc5)no[n+]4[O-])cc3)c12 [12c]
2. [O-][n+]1onc(-c2ccccc2)c1CNc1ccc(Nc2nc(C(F)(F)F)nc3c2cnn3-c2ccc(Br)cc2)cc1 [12b]
3. O=c1[nH]c(CNc2ccc(NCc3c(-c4ccccc4)no[n+]3[O-])cc2)nc2c1cnn2-c1ccccc1 [14a]
4. Cc1nc(Nc2ccc(OCc3c(-c4ccccc4)no[n+]3[O-])cc2)c2cnn(-c3ccc(Br)cc3)c2n1 [6f]
5. Cc1nc(Nc2ccc(OCc3c(-c4ccccc4)no[n+]3[O-])cc2)c2c(C)nn(-c3ccc(Br)cc3)c2n1 [6h]
6. [O-][n+]1onc(-c2ccccc2)c1COc1ccc(Nc2ncnc3c2cnn3-c2ccc(Br)cc2)cc1 [6e]

Result:
1. 95.7
2. 102
3. 39
4. 101
5. 99.8
6. 104

----------
System: OVCAR-5
Assay: NCI-60 one-dose SRB screening
Type: cell-based
Settings: Homo sapiens, OVCAR-5, Ovarian Cancer, 10 µM one dose, 48 h, read-out: growth percentage
quantity_kind: activity at 10 µM (%)
Answers are plain numbers, in %.

Look over these answered cases.
Problem: What activity at 10 µM value was documented for this compound, Cc1nn(-c2ccc(Br)cc2)c2nc(CNc3ccc(NCc4c(-c5ccccc5)no[n+]4[O-])cc3)[nH]c(=O)c12 [14c] ?
Result: 110

Problem: What activity at 10 µM value was documented for this compound, [O-][n+]1onc(-c2ccccc2)c1COc1ccc(Nc2ncnc3c2cnn3-c2ccccc2)cc1 ?
Result: 110

Problem: What activity at 10 µM value was documented for this compound, Cc1nn(-c2ccc(Br)cc2)c2ncnc(Nc3ccc(OCc4c(-c5ccccc5)no[n+]4[O-])cc3)c12 ?
Result: 99.3

Problem: What activity at 10 µM value was documented for this compound, Cc1nn(-c2ccccc2)c2nc(CNc3ccc(NCc4c(-c5ccccc5)no[n+]4[O-])cc3)[nH]c(=O)c12 [14b] ?
Result: 95.4

Problem: What activity at 10 µM value was documented for this compound, Cc1nn(-c2ccc(Br)cc2)c2nc(C(F)(F)F)nc(Nc3ccc(NCc4c(-c5ccccc5)no[n+]4[O-])cc3)c12 [12c] ?
Result: 89.5

Return reported activity at 10 µM values for all items listed beneath this line.
1. Cc1nn(-c2ccc(Br)cc2)c2nc(CCl)[nH]c(=O)c12 [13c]
2. Cc1nc(Nc2ccc(OCc3c(-c4ccccc4)no[n+]3[O-])cc2)c2c(C)nn(-c3ccccc3)c2n1
3. [O-][n+]1onc(-c2ccccc2)c1CNc1ccc(Nc2nc(C(F)(F)F)nc3c2cnn3-c2ccc(Br)cc2)cc1 [12b]

Result:
1: 116; 2: 101; 3: 77.2

Problem: What activity at 10 µM value was documented for this compound, Cc1nc(Nc2ccc(OCc3c(-c4ccccc4)no[n+]3[O-])cc2)c2c(C)nn(-c3ccc(Br)cc3)c2n1 ?
Result: 102

----------
Tested on: SF-268
Assay: NCI-60 one-dose SRB screening
Assay type: cell-based
Conditions: Homo sapiens, SF-268, CNS Cancer, 10 µM one dose, 48 h, read-out: growth percentage
For each record, write down the corresponding activity at 10 µM.
One number for each entry, in %.

Return reported activity at 10 µM values for all items listed beneath this line.
1. Cc1nn(-c2ccc(Br)cc2)c2nc(C(F)(F)F)nc(Nc3ccc(NCc4c(-c5ccccc5)no[n+]4[O-])cc3)c12 [12c]
2. [O-][n+]1onc(-c2ccccc2)c1CNc1ccc(Nc2nc(C(F)(F)F)nc3c2cnn3-c2ccc(Br)cc2)cc1 [12b]
3. Cc1nc(Nc2ccc(OCc3c(-c4ccccc4)no[n+]3[O-])cc2)c2c(C)nn(-c3ccccc3)c2n1
4. Cc1nn(-c2ccc(Br)cc2)c2ncnc(Nc3ccc(OCc4c(-c5ccccc5)no[n+]4[O-])cc3)c12

Result:
1: 73.2; 2: 65; 3: 106; 4: 104

Problem: What activity at 10 µM value was documented for this compound, Cc1nn(-c2ccc(Br)cc2)c2nc(CCl)[nH]c(=O)c12 [13c] ?
Result: 99.4

----------
For each record, write down the corresponding activity at 10 µM.
Tested on: OVCAR-5
Test: NCI-60 one-dose SRB screening
Assay type: cell-based
Settings: Homo sapiens, OVCAR-5, Ovarian Cancer, 10 µM one dose, 48 h, read-out: growth percentage
Experimental: The structures of the synthesized compounds 6a–h, 12a–c, 11, 13a–c, and 14a–c were submitted to the National Cancer Institute’s Developmental Therapeutics Program (NCI-DTP), and all of them were selected for preliminary in vitro anticancer activity screening against NCI-59 human cancer cell lines at a concentration of 10 µM, using the sulforhodamine B (SRB) assay to determine the growth percentage and cell viability. […]
Numbers only, in %.

Look over these answered cases.
Problem: I'm curious: which activity at 10 µM was measured for [O-][n+]1onc(-c2ccccc2)c1COc1ccc(Nc2ncnc3c2cnn3-c2ccc(Br)cc2)cc1 tested on OVCAR-5?
Result: 98.8

Problem: I'm curious: which activity at 10 µM was measured for O=c1[nH]c(CCl)nc2c1cnn2-c1ccccc1 [13a] tested on OVCAR-5?
Result: 111

Return reported activity at 10 µM values for all items listed beneath this line.
1. Nc1ccc(NCc2c(-c3ccccc3)no[n+]2[O-])cc1
2. Cc1nc(Nc2ccc(OCc3c(-c4ccccc4)no[n+]3[O-])cc2)c2cnn(-c3ccc(Br)cc3)c2n1

Result:
1: 116; 2: 99.3
